Listed below: self-cleavage values for each entry.
B1: LINE1-mini (parent)
chain: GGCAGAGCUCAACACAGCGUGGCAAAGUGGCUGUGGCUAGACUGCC

variants of: B1; assay: self-cleavage, relative activity (ratio to wild type); higher = more cleavage; in vitro, sequencing; the parent is a self-cleaving ribozyme
quantity kind: self-cleavage

[[record]]
variant_key = "G40C G44A"
measurement = 0.12

[[record]]
variant_key = "U28A U34C"
measurement = 0.07

[[record]]
variant_key = "G30A C42U"
measurement = 0.6

[[record]]
variant_key = "G2U G29C"
measurement = 0.04

[[record]]
variant_key = "G5A U38A"
measurement = 0.16

[[record]]
variant_key = "A24U U28A"
measurement = 1.25

[[record]]
variant_key = "G5A A24G"
measurement = 0.23

[[record]]
variant_key = "C3A A26C"
measurement = 0.44

[[record]]
variant_key = "G22U C42U"
measurement = 0.39

[[record]]
variant_key = "G40C G44U"
measurement = 0.07

[[record]]
variant_key = "G19U U38C"
measurement = 0.3

[[record]]
variant_key = "G2U G36U"
measurement = 0.04

[[record]]
variant_key = "C13G A24U"
measurement = 0.16

[[record]]
variant_key = "G19C C46A"
measurement = 0.52

[[record]]
variant_key = "A6C G22U"
measurement = 0.57

[[record]]
variant_key = "C3A C42U"
measurement = 0.26

[[record]]
variant_key = "A6C G21C"
measurement = 0.42

[[record]]
variant_key = "G1C G44U"
measurement = 0.06

[[record]]
variant_key = "C8G A16C"
measurement = 0.11

[[record]]
variant_key = "C8A A39U"
measurement = 0.45

[[record]]
variant_key = "G22U G40A"
measurement = 0.2

[[record]]
variant_key = "C3G A4U"
measurement = 0.36

